target: human recombinant serotonin (5-Hydroxytryptamine) 5-HT5A receptor (Homo sapiens, UniProt P47898); construct: expressed in transfected cells; host or cells: CHO-K1; experiment: Serotonin 5-HT5A radioligand binding ([3H]LSD); settings: compound at 0.1 μM; read-out: Inhibition of ligand binding, Serotonin 5-HT5A (percent inhibition of specific binding)
Sequence (P47898 whole entry): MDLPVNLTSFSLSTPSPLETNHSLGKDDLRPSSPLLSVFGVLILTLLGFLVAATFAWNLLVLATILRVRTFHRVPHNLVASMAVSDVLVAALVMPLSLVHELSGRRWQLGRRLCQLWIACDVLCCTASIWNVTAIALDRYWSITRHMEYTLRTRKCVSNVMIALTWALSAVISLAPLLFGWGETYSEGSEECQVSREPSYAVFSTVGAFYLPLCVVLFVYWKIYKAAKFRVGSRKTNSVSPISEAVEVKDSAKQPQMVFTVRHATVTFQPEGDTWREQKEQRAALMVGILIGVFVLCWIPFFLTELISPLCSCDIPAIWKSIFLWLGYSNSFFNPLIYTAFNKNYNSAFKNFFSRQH
Quick rule: inhibition at 0.1 µM of at least 30% means condition met, below that means condition not met.

query: I'd appreciate it if you could say whether Cc1ccc2c(c1)c1c(n2-c2cscc2-c2cnc(N(C)C)nc2)CCN(C)C1 [Compound 40] has inhibition at 0.1 µM at least equal to 30%.
result: condition met

query: I'd appreciate it if you could say whether CC(=O)Nc1ccc(-c2ccc(-n3c4c(c5cc(C)ccc53)CN(C)CC4)nc2)cn1 [Compound No. 139] has inhibition at 0.1 µM at least equal to 30%.
result: condition not met

query: I'd appreciate it if you could say whether Cc1ccc2c(c1)c1c(n2-c2cccc3ccncc23)CCN(C)C1 [Compound 58] has inhibition at 0.1 µM at least equal to 30%.
result: condition met

query: I'd appreciate it if you could say whether Cc1ccc2c(c1)c1c(n2-c2ccc(-c3cccc4[nH]ncc34)cn2)CCN(C)C1 [Compound No. 147] has inhibition at 0.1 µM at least equal to 30%.
result: condition not met

query: I'd appreciate it if you could say whether Cc1ccc2c(c1)c1c(n2-c2ccccc2-c2cn[nH]c2)CCN(C)C1 [Compound No. 104] has inhibition at 0.1 µM at least equal to 30%.
result: condition not met

query: I'd appreciate it if you could say whether Cc1ccc2c(c1)c1c(n2-c2cccc(-c3ccc(O)nc3)c2)CCN(C)C1 [Compound 52] has inhibition at 0.1 µM at least equal to 30%.
result: condition met

query: I'd appreciate it if you could say whether Cc1ccc2c(c1)c1c(n2-c2cscc2-c2c(C)noc2C)CCN(C)C1 [Compound 62] has inhibition at 0.1 µM at least equal to 30%.
result: condition met

query: I'd appreciate it if you could say whether Cc1ccc2c(c1)c1c(n2-c2cccc(-c3cncc4ccccc34)c2)CCN(C)C1 [Compound No. 67] has inhibition at 0.1 µM at least equal to 30%.
result: condition met

query: I'd appreciate it if you could say whether Cc1ccc2c(c1)c1c(n2-c2ccccc2-c2c(C)noc2C)CCN(C)C1 [Compound No. 82] has inhibition at 0.1 µM at least equal to 30%.
result: condition not met

query: I'd appreciate it if you could say whether Cc1ccc2c(c1)c1c(n2-c2ccc(-c3ccc(S(N)(=O)=O)cc3)cn2)CCN(C)C1 [Compound No. 145] has inhibition at 0.1 µM at least equal to 30%.
result: condition not met

query: I'd appreciate it if you could say whether Cc1ccc2c(c1)c1c(n2-c2cscc2-c2sccc2C)CCN(C)C1 [Compound 39] has inhibition at 0.1 µM at least equal to 30%.
result: condition met

query: I'd appreciate it if you could say whether Cc1ccc2c(c1)c1c(n2-c2cscc2-c2cccc3[nH]ncc23)CCN(C)C1 [Compound 41] has inhibition at 0.1 µM at least equal to 30%.
result: condition met

query: I'd appreciate it if you could say whether CNC(=O)c1ccc(-c2cccc(-n3c4c(c5cc(C)ccc53)CN(C)CC4)c2)cn1 [Compound No. 75] has inhibition at 0.1 µM at least equal to 30%.
result: condition not met

query: I'd appreciate it if you could say whether Cc1ccc2c(c1)c1c(n2-c2ccc(-c3ccc(F)nc3)cn2)CCN(C)C1 [Compound No. 142] has inhibition at 0.1 µM at least equal to 30%.
result: condition not met

query: I'd appreciate it if you could say whether Cc1ccc2c(c1)c1c(n2-c2ccc(-c3cccc4ccccc34)cn2)CCN(C)C1 [Compound No. 141] has inhibition at 0.1 µM at least equal to 30%.
result: condition met

query: I'd appreciate it if you could say whether Cc1ccc2c(c1)c1c(n2-c2ccccc2-c2ccnn2C)CCN(C)C1 [Compound 32] has inhibition at 0.1 µM at least equal to 30%.
result: condition not met

query: I'd appreciate it if you could say whether Cc1ccc2c(c1)c1c(n2-c2ccc(-c3ccc(F)cc3)cn2)CCN(C)C1 [Compound No. 140] has inhibition at 0.1 µM at least equal to 30%.
result: condition met

query: I'd appreciate it if you could say whether Cc1ccc2c(c1)c1c(n2-c2ccccc2-c2cccc3[nH]ncc23)CCN(C)C1 [Compound No. 105] has inhibition at 0.1 µM at least equal to 30%.
result: condition met

query: I'd appreciate it if you could say whether Cc1ccc2c(c1)c1c(n2-c2cccc(-c3sccc3C)c2)CCN(C)C1 [Compound 43] has inhibition at 0.1 µM at least equal to 30%.
result: condition met

query: I'd appreciate it if you could say whether Cc1ccc2c(c1)c1c(n2-c2ccc(-c3cnn(C)c3)cn2)CCN(C)C1 [Compound No. 134] has inhibition at 0.1 µM at least equal to 30%.
result: condition not met

query: I'd appreciate it if you could say whether Cc1ccc2c(c1)c1c(n2-c2ccc3cnccc3c2)CCN(C)C1 [Compound 38] has inhibition at 0.1 µM at least equal to 30%.
result: condition not met

query: I'd appreciate it if you could say whether Cc1ccc2c(c1)c1c(n2-c2ccc3ccncc3c2)CCN(C)C1 [Compound No. 74] has inhibition at 0.1 µM at least equal to 30%.
result: condition not met

query: I'd appreciate it if you could say whether CNC(=O)c1ccc(-c2ccccc2-n2c3c(c4cc(C)ccc42)CN(C)CC3)cn1 [Compound No. 71] has inhibition at 0.1 µM at least equal to 30%.
result: condition not met

query: I'd appreciate it if you could say whether Cc1ccc2c(c1)c1c(n2-c2ccc3c(c2)CCN(C=O)C3)CCN(C)C1 [Compound No. 77] has inhibition at 0.1 µM at least equal to 30%.
result: condition not met

query: I'd appreciate it if you could say whether Cc1ccc2c(c1)c1c(n2-c2ccccc2-c2ccc3c(ccn3C)c2)CCN(C)C1 [Compound No. 85] has inhibition at 0.1 µM at least equal to 30%.
result: condition met
